// reported log10(ED100) for each item listed
- Tested on: passive cutaneous anaphylactic (PCA) reaction
- assay remarks: Passive cutaneous anaphylactic (PCA) reaction, reagin-allergen combination, in rats
- Assay type: in vivo
- measurement conditions: Rattus norvegicus, intravenous, just before injection of allergen, read-out: ED100 (intravenous dose which produces 100% inhibition of the PCA reaction)
- Source text: In pharmacological tests the benzamide derivatives of general formula I suppress the passive cutaneous anaphylactic (PCA) reaction resulting from combination of tissue-fixed reaginic antibodies with the appropriate antigenic material (termed reagin-allergen combination) and carried out in an essentially similar manner to that described by Ogilvie [Nature (Lond.), (1964), 204, 91-92; Immunology, (1967), 12, 112-131]. […]
Values are log10 of ED100 in mg/kg.

Recorded results for 4 compounds are shown here.
[
  {
    "compound": "Cc1cc(C(=O)Nc2nnn[nH]2)c(O)c(-c2nnn[nH]2)c1",
    "measured result": -1.30
  },
  {
    "compound": "O=C(Nc1nnn[nH]1)c1cc(-c2ccccc2)ccc1O",
    "measured result": 1.00
  },
  {
    "compound": "CC(=O)c1cc(C(C)(C)C)cc(C(=O)Nc2nnn[nH]2)c1O",
    "measured result": -0.30
  },
  {
    "compound": "CS(=O)(=O)c1cccc(C(=O)Nc2nnn[nH]2)c1O",
    "measured result": 1.30
  }
]

Exam item: State its log10(ED100) for this compound: O=C(O)c1cccc(C(=O)Nc2nn[nH]n2)c1O
Marked response: 0.00

Exam item: Specify log10(ED100) for CC(=O)c1cccc(C(=O)Nc2nnn[nH]2)c1O and stop.
Marked response: -1.00

Exam item: State its log10(ED100) for this compound: O=C(Nc1nnn[nH]1)c1cccc(Cl)c1O
Marked response: 0.70

Exam item: Specify reported log10(ED100) for the compound shown: O=C(Nc1nnn[nH]1)c1cc([N+](=O)[O-])ccc1O
Marked response: -0.70

Exam item: Check the records and state log10(ED100) for O=C(Nc1ccc(C(=O)Nc2nnn[nH]2)c(O)c1)OCc1ccccc1
Marked response: -0.30

Exam item: For the compound CC(=O)c1cc(Cl)cc(C(=O)Nc2nnn[nH]2)c1O , give its measured log10(ED100) value.
Marked response: 0.30

Exam item: Give recorded log10(ED100). O=C(Nc1nnn[nH]1)c1cc(Br)ccc1O
Marked response: 0.70

Exam item: Using the record for CC(=O)Nc1ccc(C(=O)Nc2nnn[nH]2)c(O)c1 , state its measured log10(ED100).
Marked response: 0.00

Exam item: Tell us which log10(ED100) value is on record for CCCC(=O)c1cc(CC)cc(C(=O)Nc2nnn[nH]2)c1O
Marked response: -1.00

Exam item: Tell me log10(ED100) reported for CSc1cccc(C(=O)Nc2nnn[nH]2)c1O
Marked response: 1.30

Exam item: Read the entry CSc1ccc(C(=O)Nc2nnn[nH]2)c(O)c1 and write its reported log10(ED100).
Marked response: 1.00

Exam item: Specify log10(ED100) for Nc1ccc(O)c(C(=O)Nc2nnn[nH]2)c1 and stop.
Marked response: 0.70

Exam item: Supply recorded log10(ED100) for O=C(Nc1nnn[nH]1)c1ccc(O)cc1O [AJ, 2,4-dihydroxy-N-(tetrazol-5-yl)benzamide] here.
Marked response: 1.00

Exam item: For the compound O=C(Nc1nnn[nH]1)c1cccc(Br)c1O , give its measured log10(ED100) value.
Marked response: 1.00
